- Test system: TZM-bl cells
- Format: cell-based
- RECORDED CONDITIONS: CellTiter-Glo, peptide 1.3 µM, mean of n = 3 replicates
ENDPOINT LABEL: viability 1.3 µM

The value of viability 1.3 µM measured for the substance HHHHKIKIKIKIWWWW [TM4] turned out to be 83.12

The value of viability 1.3 µM measured for the substance QCKFKFQFNMWQ [CK7] turned out to be 97.9

The value of viability 1.3 µM measured for the substance RGEKIKIQINM [CN18] turned out to be 87.66

The value of viability 1.3 µM measured for the substance MKFKFQF [DF5 / CK16] turned out to be 111.3

The value of viability 1.3 µM measured for the substance KIKIKIKIWWWW [TM12] turned out to be 106.4

The value of viability 1.3 µM measured for the substance KAKAQANMWQ [JG3] turned out to be 106.3

The value of viability 1.3 µM measured for the substance KFKFQFFF [TG12] turned out to be 109.4

The value of viability 1.3 µM measured for the substance KFKFQFW [TM71] turned out to be 104.2

* * *

- RUN DESCRIPTION: β-sheet content by ATR-FT-IR
- Assay type: physicochemical
- RECORDED CONDITIONS: Fig. S7 panel A; β-sheet content by ATR-FT-IR
Parameter b -sheet / %: see the listing below.
Entry format: amount then unit.

Previously resolved entries follow.
SUBSTANCE | b -sheet / %
CEIEIQINM | 46.31%
KFKQFFNMWQ | 32.75%
CQFQFQF | 34.9%

The value of b -sheet / % measured for the substance CEIEIQI turned out to be 45%

The value of b -sheet / % measured for the substance KYKGAIIGNIK turned out to be 44.63%

The value of b -sheet / % measured for the substance HLHLPLL turned out to be 49.19%

The value of b -sheet / % measured for the substance KFKFEFEF turned out to be 40.95%

The value of b -sheet / % measured for the substance KFKFQFNM turned out to be 40.31%

The value of b -sheet / % measured for the substance QCKAKAQANMWQ turned out to be 32.8999%

The value of b -sheet / % measured for the substance RGDCKFKFQF turned out to be 46.68%

The value of b -sheet / % measured for the substance NMWQKFKFQF turned out to be 33.22%

The value of b -sheet / % measured for the substance HGEHGEHGE turned out to be 6.271%

The value of b -sheet / % measured for the substance ILKNLSRSRKIKIQIC turned out to be 37.6%

The value of b -sheet / % measured for the substance MKIKIQINM turned out to be 38.6306%

The value of b -sheet / % measured for the substance KYKYQY turned out to be 0%

The value of b -sheet / % measured for the substance RGDCKIKIQINM turned out to be 43%

* * *

Parameter Fibril: see the listing below.
- Format: physicochemical
- Design: key: 1 = fibrils present; 0 non-fibrillar structures
- RECORDED CONDITIONS: TEM; 1 = fibrils present, 0 = non-fibrillar

Previously resolved entries follow.
SUBSTANCE | REPORTED VALUE
HHHHEIEIEIEI | 0
QCKFKFQFNM | 1
HLHLPLL | 0

The value of Fibril measured for the substance KIKIQINMWWQ turned out to be 0

The value of Fibril measured for the substance KIKIKIKIYYYY turned out to be 0

The value of Fibril measured for the substance KIKIQINMWA turned out to be 1

The value of Fibril measured for the substance KFKQFFNMWQ turned out to be 0

The value of Fibril measured for the substance EFEFQF turned out to be 0
